- assayProcedure: yeast display, Sf9 membrane polyspecificity reagent, FACS + sequencing; frameworks hold sequencing errors
valueType: polyreactivity (PSR sort gate)

Recorded results for 10 sequences are shown here.
# biosequence, valueType, observedResult
measured = [
    ("QVQLVESGGGLVQAGGSLRLSCAASGFTFTLNTMGWYRQAPGKERELVAAISSGGRTYYADSVKGRFTISRDNAKNTVYLQMNSLKPEDTAVYYCAADYTWRFLRFGYWGQGTQVTVSS", "polyreactivity (PSR sort gate)", "high polyreactivity"),
    ("QVQLVESGGGLVQAGGSLRLSCAASGSIFYPYAMGWYRQAPGKERELVAVINDTGSTYYADSVKGRFTISRDNAKNTVYLQMNSLKPEETAVYYCNTATYVDSFPDPGDHWGQGTQVTVSS", "polyreactivity (PSR sort gate)", "low polyreactivity"),
    ("QVQLVESGGGLVQAGGSLRLSCAASGSTFDDYVMGWYRQAPGKERELVAGINSRGTSTDYAGSVKGRFTISRDNAKNTVYLQMNSLKPEDTAVYYCAADDSHGYDYWGQGTQVTVSS", "polyreactivity (PSR sort gate)", "low polyreactivity"),
    ("QVQLVESGGGLVQAGGSLRLSCAASGRIFSVYDMGWYRQAPGKERELVAAIDTSDGSTNYADSVTGRFTISRDNAKNTVYLQMNSLKPEDTAVYYCNATDSYVPFDYWGQGTQVTVSS", "polyreactivity (PSR sort gate)", "low polyreactivity"),
    ("QVQLVESGGGLVQAGGSLRLSCAASGFIFRYYAMGWYRQAPGNERELVAAISYSGGSTYYADSVKGRFTISRDNAKNTVYLQMNSLKPEDTAVYYGAAVLRTRDHPQPNYEYWGQGTQVTVSS", "polyreactivity (PSR sort gate)", "high polyreactivity"),
    ("QVQLVESGGGLVQAGGSLRLSCAASGFIFRRYAMGWYRQAPGKERELVAIITSGVRTYYADSVKGRFTISRDNAKNTVYLQMNSLKPEDTAVYYCASRVKDYPEYDYWGQGTQVTVSS", "polyreactivity (PSR sort gate)", "low polyreactivity"),
    ("QVQLVESGGGLVQAVGSLRLSCAASGNIFHRNAMGWYRQAPGKEMELVAAISWSGGSTYYADSVKGRFTISRDNAKNTVYLQMNSLKPEDTAVYFCNAYYYYRFKPSHPGLRSYYWGQGTQVTVSS", "polyreactivity (PSR sort gate)", "high polyreactivity"),
    ("QVQLVESGGGLVQAGGSLRLSCAASGSIFYPYAMGWYRQAPGKERELVAAISRSGGSTRYADSVKGRFTISRDNAKNTVYLQMNSLKPEDTAVYYCAVRVFYGVGLIGYYYWGQGTQVTVSS", "polyreactivity (PSR sort gate)", "high polyreactivity"),
    ("QVELVASGGGLVQAGGSLRLSCAASGSTFAANAMGWYRQAPGKERELVAAITSGGGSTYYADSVKGRFTISRDNEKITVYLQMNSLKPEDTAVYYCAALQSHGVDYDYWGLGTQVTVSS", "polyreactivity (PSR sort gate)", "low polyreactivity"),
    ("QVQLVESGGGLVQAGGSLRLSCAASGLIFAPYAMGLYRQAPGKERELVAAISFRGGSTYYADSVKGRFTISRDNAKNTVYFQMNSLKPEDTAVYYSAADWLYDYGEYYYWGQGTQVTVSS", "polyreactivity (PSR sort gate)", "high polyreactivity"),
]

# get_value(readout='polyreactivity (PSR sort gate)', item= QVQLVESGGGLVQAGGSLRLSCDASGSIFDGYGMGWYRQAPGKERELVASITWNDGSTYYAASVKGRFTISRDNATNTVYLQMNSLKPEDTAVYYCAADQWGYEYDYWGQGTQVTVSS )
low polyreactivity

# get_value(readout='polyreactivity (PSR sort gate)', item= QVQLVESGGGLVQAGGSLRLRCAASGYTFPSNAKGWYRQAPGKERELVAPISSGGRTNYADSVKGRFTISRDNAKNTVYLLMKSLKPEDTAVYYSNADGGPGYPRAYDYWGQVTQVTVSS )
low polyreactivity

# get_value(readout='polyreactivity (PSR sort gate)', item= QVQLVESGGGLVQAGGSLRLSCAASGSIFFLYGMGWYRQAPGKERELVAAIRKRGSSTYYADSVKGRFTISRDNAKNTVYLQMNSLKPEDTAVYYCAAAALGYYGYRGFDYWGQGTQVTVSS )
low polyreactivity

# get_value(readout='polyreactivity (PSR sort gate)', item= QVQLVESGGGLVQAGGSLRLSCAATGSTIRSYGMGWYRQAPGKERELVASISWSGGSTYYADSVKGRFTISRDNAKNTVYLQMNSLKPEDTAVYYCAAGTLYSLYFGRHGYWGQGTQVTVSS )
low polyreactivity

Provenance of the data: the nanobody polyreactivity screen of Harvey et al. (2022)
